Cited source: PubChem BioAssay (NCI)

# ASSAY_INFO: NCI Yeast Anticancer Drug Screen. Data for the rad52 strain (AID 147);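 also: 0% = growth of vehicle-treated control cultures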
# CONDITION_DESCRIPTION: S. cerevisiae rad52 mutant growth inhibition; at 3.7 µM; hits give high values
This is part of a sample that, as a whole, favours compounds with a hit. Of some 79,000 tested, about 15% had one in any assay.
Decision: growth inhibition compared against 10%; not below it gives 1.0, below it gives 0.0.

Below, 5 molecules whose answers are already recorded.
molecule="COc1ccccc1/C=C\\C(=O)C1COCN1 (stereo unspecified)" label_class=1.0
molecule=C/C(=N\Sc1ccccc1)c1ccccc1O label_class=0.0
molecule="O=C(O)c1cc2c(cc1S(=O)(=O)O)C1C(C3C2C2(Cl)C(Cl)=C(Cl)C3(Cl)C2(Cl)Cl)C2(Cl)C(Cl)=C(Cl)C1(Cl)C2(Cl)Cl (stereo unspecified)" label_class=0.0
molecule=O=S(=O)(NNc1ccccc1)c1ccccc1 label_class=0.0
molecule=CC(C)(N=Nc1ccc(Cl)cc1)[N+](=O)[O-] label_class=1.0

Q: Is the recorded value of growth inhibition equal to or greater than 10% for this molecule? CN(C)N=Nc1ccc(N(C)C)cc1
A: 0.0

Q: Given the entry O=C1c2ccccc2C(=O)c2sc(Nc3ccccc3Cl)nc21 , answer whether its growth inhibition meets or surpasses 10%.
A: 1.0

Q: I'd appreciate it if you could say whether CC1=CC(=C(c2ccc(N)c(C)c2)c2ccc(N)c(C)c2)C=CC1=N has growth inhibition at least equal to 10%.
A: 1.0

Q: I'd appreciate it if you could say whether NCCOc1ccc(/C(=C(/Cl)c2ccccc2)c2ccccc2)cc1 has growth inhibition at least equal to 10%.
A: 0.0

Q: Can COC(=O)/C(C#N)=C\NC(=S)C(N)=S be said to have growth inhibition at or above 10%?
A: 1.0

Q: Tell me whether growth inhibition is at least 10% here: Cc1cccc(C)c1NC(=O)CCC(=O)C(C)C(=O)c1ccc(O)cc1 (stereo unspecified)
A: 0.0
